Exercise: state measured pIC50 for each of the compounds provided.
# Study target: HCV polymerase (Hepatitis C virus genotype 1b, UniProt P26663)
# Construct: 2.5 pmoles (0.15 μg) HCV polymerase protein in a final volume of 75 μL
# Sequence (P26663 2420-3010): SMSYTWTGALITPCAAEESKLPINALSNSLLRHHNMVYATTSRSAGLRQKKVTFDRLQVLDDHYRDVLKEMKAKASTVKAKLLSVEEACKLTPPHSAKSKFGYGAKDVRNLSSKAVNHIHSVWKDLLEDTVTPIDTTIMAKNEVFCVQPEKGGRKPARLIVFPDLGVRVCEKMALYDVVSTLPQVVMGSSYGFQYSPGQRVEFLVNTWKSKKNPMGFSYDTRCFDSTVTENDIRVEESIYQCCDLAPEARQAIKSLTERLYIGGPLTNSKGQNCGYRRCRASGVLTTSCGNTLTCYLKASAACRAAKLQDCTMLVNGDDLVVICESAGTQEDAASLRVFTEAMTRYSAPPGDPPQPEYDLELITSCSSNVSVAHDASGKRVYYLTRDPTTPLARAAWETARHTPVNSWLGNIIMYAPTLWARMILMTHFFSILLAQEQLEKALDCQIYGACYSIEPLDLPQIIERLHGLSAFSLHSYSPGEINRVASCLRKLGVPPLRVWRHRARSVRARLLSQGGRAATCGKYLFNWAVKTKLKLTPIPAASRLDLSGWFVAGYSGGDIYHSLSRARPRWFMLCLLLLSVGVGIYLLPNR
# Experiment description: HCV polymerase primer/template-directed transcription assay (32P-GTP incorporation, filter binding)
# Type: biochemical
# Cond: recombinant HCV polymerase; 30 minutes at 30° C.; concentration giving 50% inhibition of polymerase-directed transcription; read-out: IC50
Just so you know, pIC50 here is -log10 of the concentration in molar units; reply with that number alone.

Exercise: Given the compound CCc1ccc(O)c(CCC2(C3CCCC3)CC(O)=C(Cc3nc4ncc(Cl)cn4n3)C(=O)O2)c1 (single isomer, unassigned; enantiomer 2) [A(172)] , what is its reported pIC50?
Solution: 8.22

Exercise: Let us now turn to COc1ccc(CCC2(C3CCCC3)CC(O)=C(Cc3cccc(C#N)c3)C(=O)O2)cc1Cl (centres unmarked)
Solution: 6.06

Exercise: Let us now turn to CCc1cc(CCC2(C3CCCC3)CC(O)=C(Cc3nc4nc(C)cc(C)n4n3)C(=O)O2)ccc1O (centres unmarked)
Solution: 9.00

Exercise: Let us now turn to Cc1cc(C)n2nc(CC3=C(O)CC(CCc4ccc(N(C)S(C)(=O)=O)cc4)(C4CCCC4)OC3=O)nc2n1 (centres unmarked)
Solution: 7.14

Exercise: Let us now turn to CCc1cc(CCC2(C3CCCC3)CC(=O)CC(=O)O2)c(OC)cc1O (centres unmarked)
Solution: 6.52

Exercise: Let us now turn to CCCC1(CCc2ccc(OC)cc2)CC(=O)CC(=O)O1 (centres unmarked)
Solution: 4.13

Exercise: Let us now turn to N#CCc1cccc(C#CC2(C3CCCC3)CC(=O)CC(=O)O2)c1 (centres unmarked)
Solution: 4.19

Exercise: Let us now turn to CCc1cc(CCC2(C3CCCC3)CC(=O)CC(=O)O2)c2c(c1O)CCO2 (centres unmarked)
Solution: 6.22

Exercise: Let us now turn to CC1(c2ccc(CCC3(C4CCCC4)CC(=O)CC(=O)O3)cc2Cl)CC(=O)CC(=O)O1 (centres unmarked)
Solution: 6.90

Exercise: Let us now turn to CCc1ccc(OCCOC)c(CCC2(C3CCCC3)CC(=O)CC(=O)O2)c1 (centres unmarked)
Solution: 5.89

Exercise: Let us now turn to COc1ccc(CCC2(C3CCCC3)CC(O)=C(Sc3nc4ncc(C)cn4n3)C(=O)O2)cc1Cl (centres unmarked)
Solution: 7.17

Exercise: Let us now turn to Cc1cc(C)n2nc(CC3=C(O)CC(CCc4ccc(O)c(Cl)c4)(C4CCCC4)OC3=O)nc2n1 (centres unmarked)
Solution: 7.89

Exercise: Let us now turn to COc1ccc(CCC2(C3CCCC3)CC(O)=C(Cc3cc(=O)[nH]c(-c4ccccn4)n3)C(=O)O2)cc1 (centres unmarked)
Solution: 6.66

Exercise: Let us now turn to COC(=O)c1nnc(SC2=C(O)CC(CCc3ccc(OC)c(Cl)c3)(C3CCCC3)OC2=O)n1C (centres unmarked)
Solution: 7.49

Exercise: Let us now turn to CCOc1ccc(CCC2(C3CCCC3)CC(=O)CC(=O)O2)cc1C (centres unmarked)
Solution: 5.37

Exercise: Let us now turn to O=C1OC(CCCC2CCCCC2)(C2CCCC2)CC(O)=C1Sc1nnc(-c2ccncc2)[nH]1 (centres unmarked)
Solution: 6.26

Exercise: Let us now turn to Cc1cnc2nc(CC3=C(O)CC(COc4ccc(C(C)(C)C#N)c(F)c4)(C4CCCC4)OC3=O)nn2c1 (centres unmarked)
Solution: 6.40

Values compiled from patent US7473790B2.
